Taken from patent US8865623B2.

- System: Echinochloa crus-galli (ECHCG)
- protocol-text: Pre-emergence herbicidal activity, glasshouse pot test
- Assay type: in vivo
- condition-description: Echinochloa crus-galli, 312 h; Rate 250 g/ha; pre-emergence spray; evaluated after 13 days; read-out: Pre-emergence activity ECHCG (100=total damage to plant; 0=no damage to plant)
- Protocol: Seeds of a variety of test species were sown in standard soil in pots. […] After 13 days for pre and post-emergence, the test was evaluated (100=total damage to plant; 0=no damage to plant). […]
Answer each item with its documented pest or weed control at 250 g/ha.
Please reply with the bare figure in % and do not write the unit itself.

Prompt: Requested field: pest or weed control at 250 g/ha. Item: CCc1ccc(Oc2ncc(C(F)(F)F)cc2Cl)cc1C1=C(O)CC(C)(C)CC1=O [Example A-86]
Completion: 100

Prompt: Next molecule: CCc1ccc(Oc2cnc3ccc(Br)cc3n2)cc1C1=C(O)CC2(CCOCC2)CC1=O [Example A-305]
Completion: 100

Prompt: Next molecule: CCc1ccc(Oc2nc3ccccc3s2)cc1C1=C(O)CC(C)(C)CC1=O [Example A-286]
Completion: 100

Prompt: Next molecule: CCc1ccc(Oc2nc(Cl)c(Cl)cc2Cl)cc1C1=C(O)C(C)(C)OC(C)(C)C1=O [Example A-142]
Completion: 40

Prompt: Next molecule: CCc1ccc(Oc2ccc3ccccc3n2)cc1C1=C(O)CC(C)(C)CC1=O [Example A-292]
Completion: 100
